// provenance: patent US9738655B2

- STUDY SYSTEM: purified human plasma kallikrein (Homo sapiens (Human))
- TEST DETAILS: Plasma kallikrein enzyme inhibition assay (chromogenic substrate S-2302)
- Type: biochemical
- RUN CONDITIONS: measured at 25° C. (no asterisk); TFA salt
Counter-ions that a name gives are not always drawn.
So basically: is Ki under 80 nM? Then Met. Not under? Then Not met.

# strict comparison: is reported Ki < 80 nM? input = CN(C)C(=O)C1CCN(c2cccc3c2CCN(C(=O)C2CC(c4cccc(Cl)c4F)=NO2)C3C(=O)Nc2ccc(C(=O)O)cc2)CC1 (single isomer, unassigned) [Example 279, TFA salt]
Met

Find out if reported Ki for COC1CCN(c2cccc3c2CCN(C(=O)C2(C)CC(c4cccc(Cl)c4F)=NO2)C3C(=O)Nc2ccc(C(=O)O)cc2)CC1 (centres unmarked) [Example 266, TFA salt] is less than 80 nM
Not met

Strictly below 80 nM: is that where Ki of CN(C)C(=O)C1CCN(c2cccc3c2CCN(C(=O)C2CC(c4cccc(Cl)c4F)=NO2)C3C(=O)Nc2ccc(C(=O)O)cc2)CC1 (single isomer, unassigned) [Example 278, TFA salt] sits?
Met

In plain terms, does COC1CCN(c2cccc3c2CCN(C(=O)C2CC(c4c(C(F)(F)F)ccc(Cl)c4F)=NO2)C3C(=O)Nc2ccc(C(=O)O)cc2)CC1 (centres unmarked) [Example 298, TFA salt] come in under 80 nM for Ki?
Not met

* * *

- STUDY SYSTEM: purified human Factor XIa (Homo sapiens (Human), UniProt P03951)
- Sequence (P03951 388-625): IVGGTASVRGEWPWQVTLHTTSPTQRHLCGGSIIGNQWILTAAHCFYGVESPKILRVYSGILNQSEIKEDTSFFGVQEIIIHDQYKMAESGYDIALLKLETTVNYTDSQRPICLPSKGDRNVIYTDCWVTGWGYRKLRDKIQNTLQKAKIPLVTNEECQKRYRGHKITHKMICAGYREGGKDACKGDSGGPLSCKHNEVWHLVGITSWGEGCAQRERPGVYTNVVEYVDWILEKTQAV
- Sequence (P03951 19-387 partner): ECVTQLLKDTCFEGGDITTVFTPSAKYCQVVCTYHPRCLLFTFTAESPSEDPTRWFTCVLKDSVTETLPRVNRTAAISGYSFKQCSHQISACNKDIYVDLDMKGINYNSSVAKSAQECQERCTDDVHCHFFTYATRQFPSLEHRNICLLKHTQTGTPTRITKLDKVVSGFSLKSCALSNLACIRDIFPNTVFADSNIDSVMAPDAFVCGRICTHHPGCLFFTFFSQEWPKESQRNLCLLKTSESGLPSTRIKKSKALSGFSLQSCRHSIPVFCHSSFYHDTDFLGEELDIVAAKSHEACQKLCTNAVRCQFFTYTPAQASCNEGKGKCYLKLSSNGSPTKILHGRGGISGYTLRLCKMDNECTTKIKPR
- TEST DETAILS: Factor XIa enzyme inhibition assay (chromogenic substrate S-2366)
- RUN CONDITIONS: read-out: Factor XIa Ki; measured at 25° C.
Counter-ions that a name gives are not always drawn.
EXPERIMENTAL READOUT: Ki

// Ki lookup, key: Cn1ncc2cc(-c3cccc4c3CCN(C(=O)c3cn(-c5cccc(Cl)c5F)nn3)C4C(=O)Nc3ccc(C(=O)O)cc3)ccc21 (stereo not drawn)
< 5 nM

Entry Cn1cnc(-c2cccc3c2CCN(C(=O)c2cn(-c4cccc(Cl)c4F)nn2)C3C(=O)Nc2ccc(C(=O)O)cc2)c1 (stereo not drawn) [Example 246, TFA salt] has what Ki?
< 5 nM

Need Ki, item O=C(O)c1ccc(NC(=O)C2c3cccc(N4CCC(N5CCCC5=O)CC4)c3CCN2C(=O)c2cnn(-c3cccc(Cl)c3F)c2)cc1 (stereo not drawn) [Example 74, TFA salt]
< 5 nM

Can you share its Ki? I mean this compound: Cn1ncnc1-c1cccc2c1CCN(C(=O)c1cn(-c3cccc(Cl)c3F)nn1)C2C(=O)Nc1ccc(C(=O)O)cc1 (stereo not drawn) [Example 245, TFA salt]
< 5 nM

Request the reported Ki associated with O=C(NC12CCC(C(=O)O)(CC1)CC2)[C@@H]1c2cccc(-c3cncnc3)c2CCN1C(=O)c1cn(-c2cccc(Cl)c2F)nn1 (single isomer, unassigned; enantiomer a)
3030 nM

# get_value(readout='Ki', item= CN(C)C1CCN(c2cccc3c2CCN(C(=O)c2cn(-c4cccc(Cl)c4F)nn2)C3C(=O)Nc2ccc(C(N)=O)cc2)CC1 (stereo not drawn) [Example 99, bis-TFA salt] )
< 5 nM

* * *

Ki for assorted molecules
- STUDY SYSTEM: purified human plasma kallikrein (Homo sapiens (Human), UniProt P03952)
- Sequence (P03952 391-638): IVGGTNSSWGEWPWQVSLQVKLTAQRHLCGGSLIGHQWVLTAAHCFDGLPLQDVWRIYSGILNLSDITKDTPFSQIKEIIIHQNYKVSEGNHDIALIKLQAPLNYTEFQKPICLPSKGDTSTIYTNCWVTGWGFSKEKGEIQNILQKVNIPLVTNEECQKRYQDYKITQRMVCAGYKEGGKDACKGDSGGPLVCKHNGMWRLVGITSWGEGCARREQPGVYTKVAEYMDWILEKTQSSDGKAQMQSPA
- Sequence (P03952 20-390 partner): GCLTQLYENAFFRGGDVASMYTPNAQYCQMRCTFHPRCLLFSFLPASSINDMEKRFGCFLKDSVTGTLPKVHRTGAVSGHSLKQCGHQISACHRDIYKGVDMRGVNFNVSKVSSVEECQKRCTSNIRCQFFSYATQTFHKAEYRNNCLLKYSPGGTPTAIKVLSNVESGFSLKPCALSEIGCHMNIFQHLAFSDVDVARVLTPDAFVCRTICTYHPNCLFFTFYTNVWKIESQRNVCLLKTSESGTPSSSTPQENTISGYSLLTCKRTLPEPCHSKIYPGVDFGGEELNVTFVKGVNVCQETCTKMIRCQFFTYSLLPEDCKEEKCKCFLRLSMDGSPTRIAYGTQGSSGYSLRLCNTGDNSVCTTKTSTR
- TEST DETAILS: Plasma kallikrein enzyme inhibition assay (chromogenic substrate S-2302)
- Assay type: biochemical
- RUN CONDITIONS: measured at 25° C. (no asterisk)
Structures can show the parent of a compound that is named as a salt.
Unit nM implied. Number only.

NS(=O)(=O)c1cccc(-c2cccc3c2CCN(C(=O)c2cn(-c4cccc(Cl)c4F)nn2)C3C(=O)Nc2ccc(C(=O)O)cc2)c1 (stereo not drawn); 23.9
CN1CCN(c2cccc3c2CCN(C(=O)c2cc(-c4cccc(Cl)c4)no2)C3C(=O)Nc2ccc(C(=O)O)cc2)CC1 (stereo not drawn) [Example 198, TFA salt]; 122
CNC(=O)c1ccc(-c2cccc3c2CCN(C(=O)[C@H]2CC(c4cccc(Cl)c4F)=NO2)[C@@H]3C(=O)Nc2ccc(C(=O)O)cc2)cn1 [Example 19, TFA salt]; 1.51
COC(C)(C)C1CCN(c2cccc3c2CCN(C(=O)c2cnn(-c4cccc(Cl)c4F)c2)C3C(=O)Nc2ccc(C(=O)O)cc2)CC1 (stereo not drawn) [Example 224, TFA salt]; 92
COC1CCN(c2cccc3c2CCN(C(=O)c2cc(-c4cccc(Cl)c4F)ccn2)C3C(=O)Nc2ccc(C(=O)O)cc2)CC1 (stereo not drawn) [Example 322, TFA salt]; 138
CN1CCN(c2cccc3c2CCN(C(=O)c2cnn(-c4cccc(Cl)c4F)c2N)C3C(=O)Nc2ccc(C(=O)O)cc2)CC1=O (stereo not drawn) [Example 318, TFA salt]; 21.1
N#Cc1ncc(-c2cccc3c2CCN(C(=O)c2cn(-c4cccc(Cl)c4F)nn2)C3C(=O)Nc2ccc(C(=O)O)cc2)cn1 (stereo not drawn); 17.5
CC(C)c1nnc2n1CCN(c1cccc3c1CCN(C(=O)c1cn(-c4cccc(Cl)c4F)nn1)[C@H]3C(=O)Nc1ccc(C(=O)O)cc1)C2 [Example 65, TFA salt]; 260

Returns the measured Ki for the input molecule. Input: CN(C)C1CCN(c2cccc3c2CCN(C(=O)c2cn(-c4cccc(Cl)c4F)nn2)C3C(=O)Nc2ccc(C(N)=O)cc2)CC1 (stereo not drawn) [Example 99, bis-TFA salt]
2.74

Query: Ki; subject: COC1CCN(c2cccc3c2CCN(C(=O)c2cc(-c4c(F)ccc(Cl)c4F)no2)C3C(=O)Nc2ccc(C(=O)O)cc2)CC1 (racemic) [Example 265, TFA salt]
178

Entry O=C(O)c1ccc(NC(=O)C2c3cccc(-c4ccc5c(c4)OCO5)c3CCN2C(=O)c2cn(-c3cccc(Cl)c3F)nn2)cc1 (stereo not drawn) has what Ki?
29.5

Recorded Ki of COC1CCN(c2cccc3c2CCN(C(=O)c2cnn(-c4cccc(Cl)c4F)c2N)[C@@H]3C(=O)Nc2ccc(C(=O)O)cc2)CC1 [Example 285, TFA salt] , please.
19.8

# get_value(readout='Ki', item= COc1cccc2c1CCN(C(=O)[C@H]1CC(c3cccc(Cl)c3F)=NO1)[C@@H]2C(=O)Nc1ccc(C(=O)O)cc1 )
3.24

What measured Ki goes with CN(C)C1CCN(c2cccc3c2CCN(C(=O)c2cn(-c4cccc(Cl)c4F)cn2)C3C(=O)Nc2ccc(C(=O)O)cc2)CC1 (stereo not drawn) [Example 53, bis-TFA salt] ?
1.21
